Test system: cells obtained from the spleen of Balb/c mice sensitized with sheep red blood cells
Experiment: Plaque Forming Cell Assay (inhibition of antibody production)
Format: cell-based, Balb/c strain male mice
Details: 10^-4 M
MEASURE: Direct PFC Count (mean ± S.E.M.)

> print(dat)
                            molecule.smiles                     target.or.test.system  result.value
1  CCCCn1c(=O)c(C(=O)Nc2ccncc2)c(O)c2ccsc21  cells obtained from the spleen of Balb/c mice sensitized with sheep red blood cells           109
2  CCCCn1c(=O)c(C(=O)Nc2ccncc2)c(O)c2sccc21  cells obtained from the spleen of Balb/c mice sensitized with sheep red blood cells           101
3  CCCCn1c(=O)c(C(=O)Nc2cccnc2)c(O)c2sccc21  cells obtained from the spleen of Balb/c mice sensitized with sheep red blood cells           336
4  CCCCn1c(=O)c(C(=O)Nc2cccnc2)c(O)c2ccsc21  cells obtained from the spleen of Balb/c mice sensitized with sheep red blood cells            42
